Target: Voltage-dependent N-type calcium channel subunit alpha-1B (Homo sapiens)
Sequence (Q00975 whole entry): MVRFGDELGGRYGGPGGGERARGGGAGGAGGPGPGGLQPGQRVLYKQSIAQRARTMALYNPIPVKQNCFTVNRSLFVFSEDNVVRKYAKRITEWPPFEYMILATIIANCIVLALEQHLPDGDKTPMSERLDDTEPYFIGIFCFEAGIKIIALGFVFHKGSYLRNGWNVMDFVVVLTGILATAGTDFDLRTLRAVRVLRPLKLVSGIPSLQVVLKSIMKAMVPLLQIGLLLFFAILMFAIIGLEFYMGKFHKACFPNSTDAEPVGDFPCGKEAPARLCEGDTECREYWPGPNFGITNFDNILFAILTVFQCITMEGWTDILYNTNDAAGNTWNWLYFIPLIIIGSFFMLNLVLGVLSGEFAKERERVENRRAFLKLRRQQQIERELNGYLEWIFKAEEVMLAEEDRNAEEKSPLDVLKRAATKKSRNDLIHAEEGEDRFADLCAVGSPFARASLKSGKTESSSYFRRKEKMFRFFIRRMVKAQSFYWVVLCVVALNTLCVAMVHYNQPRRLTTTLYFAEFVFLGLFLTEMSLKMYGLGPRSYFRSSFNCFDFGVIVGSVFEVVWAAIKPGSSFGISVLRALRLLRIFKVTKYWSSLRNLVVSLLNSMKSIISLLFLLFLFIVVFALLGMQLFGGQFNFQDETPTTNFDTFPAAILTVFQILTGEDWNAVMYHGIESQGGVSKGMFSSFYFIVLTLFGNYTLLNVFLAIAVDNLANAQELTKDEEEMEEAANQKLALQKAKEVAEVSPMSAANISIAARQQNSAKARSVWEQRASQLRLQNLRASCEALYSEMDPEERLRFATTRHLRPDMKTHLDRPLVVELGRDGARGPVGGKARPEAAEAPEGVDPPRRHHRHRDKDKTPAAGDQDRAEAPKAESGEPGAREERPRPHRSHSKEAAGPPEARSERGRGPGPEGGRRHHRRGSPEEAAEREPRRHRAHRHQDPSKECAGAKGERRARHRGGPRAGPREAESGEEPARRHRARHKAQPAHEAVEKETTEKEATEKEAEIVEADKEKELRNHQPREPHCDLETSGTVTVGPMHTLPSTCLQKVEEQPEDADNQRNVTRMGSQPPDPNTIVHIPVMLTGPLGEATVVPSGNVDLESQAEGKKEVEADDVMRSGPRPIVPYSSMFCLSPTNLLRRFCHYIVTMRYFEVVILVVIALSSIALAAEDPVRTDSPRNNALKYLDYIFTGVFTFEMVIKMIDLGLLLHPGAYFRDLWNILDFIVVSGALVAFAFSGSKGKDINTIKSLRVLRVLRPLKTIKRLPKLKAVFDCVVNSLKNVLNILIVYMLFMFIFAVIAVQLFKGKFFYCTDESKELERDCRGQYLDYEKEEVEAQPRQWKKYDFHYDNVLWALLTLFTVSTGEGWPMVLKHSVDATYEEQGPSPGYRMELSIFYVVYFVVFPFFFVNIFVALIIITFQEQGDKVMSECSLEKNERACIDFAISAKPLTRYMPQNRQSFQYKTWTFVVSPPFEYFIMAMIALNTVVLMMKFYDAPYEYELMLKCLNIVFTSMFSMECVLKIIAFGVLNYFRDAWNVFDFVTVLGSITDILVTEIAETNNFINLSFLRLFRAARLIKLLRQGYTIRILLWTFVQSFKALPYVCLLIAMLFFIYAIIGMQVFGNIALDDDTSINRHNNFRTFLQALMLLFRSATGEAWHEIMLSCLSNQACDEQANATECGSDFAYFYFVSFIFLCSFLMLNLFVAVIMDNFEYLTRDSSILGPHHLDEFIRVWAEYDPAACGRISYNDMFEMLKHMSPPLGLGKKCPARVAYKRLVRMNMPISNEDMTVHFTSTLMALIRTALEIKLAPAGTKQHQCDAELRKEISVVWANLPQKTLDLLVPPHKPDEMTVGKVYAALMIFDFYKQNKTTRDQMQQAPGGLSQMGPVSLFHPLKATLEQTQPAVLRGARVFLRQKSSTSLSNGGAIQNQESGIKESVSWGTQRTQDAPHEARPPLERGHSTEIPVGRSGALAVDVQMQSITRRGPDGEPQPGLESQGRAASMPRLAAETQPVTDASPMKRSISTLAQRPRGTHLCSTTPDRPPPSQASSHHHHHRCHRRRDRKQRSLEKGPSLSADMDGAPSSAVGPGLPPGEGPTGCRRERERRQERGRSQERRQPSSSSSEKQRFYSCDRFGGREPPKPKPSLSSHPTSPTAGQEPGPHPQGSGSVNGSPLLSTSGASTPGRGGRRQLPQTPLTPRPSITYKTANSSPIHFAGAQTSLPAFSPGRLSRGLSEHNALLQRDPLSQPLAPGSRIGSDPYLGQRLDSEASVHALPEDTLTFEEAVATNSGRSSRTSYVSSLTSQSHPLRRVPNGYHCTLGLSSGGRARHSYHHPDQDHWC
Assay: Inhibition of Cav2.2 (unknown origin) expressed in HEK293 cells assessed as decrease in KCl depolarization-induced Ca2+ influx measured for 5 mins by fluorescence based FDSS assay
Assay type: cell-based
experimental-endpoint: pIC50
The scale used: pIC50 is minus the common logarithm of the concentration in molar units.

Record request: pIC50 value, item CC1(C)CC(c2cc(-c3ccc(Cl)cc3)n(-c3ccccn3)n2)CC(C)(C)O1 7.92

Follow-up item: COc1ccccc1-n1nc(C2CC(C)(C)OC(C)(C)C2)cc1-c1ccc(Cl)cc1 9.00

Follow-up item: CCN(CC)c1ccccc1-n1nc(C2CC(C)(C)OC(C)(C)C2)cc1-c1ccc(Cl)cc1 9.00

Follow-up item: COc1ccccc1-n1nc(C2CC(C)(C)OC(C)(C)C2)cc1-c1ccc(C)nc1 8.22

Follow-up item: CCOc1ccc(-c2cc(C3CC(C)(C)OC(C)(C)C3)nn2-c2ccccc2OC)cn1 8.30

Follow-up item: CCOc1ccc(-c2cc(C3CC(C)(C)OC(C)(C)C3)nn2-c2ccccc2OC)cc1 8.70

Follow-up item: COc1ccccc1-n1nc(C2C[C@H](C)O[C@@H](C)C2)cc1-c1ccc(Cl)cc1 (relative stereo) 8.70

Follow-up item: COc1ccccc1-n1nc(C2CC(C)(C)OC(C)(C)C2)cc1-c1csc(Cl)c1 8.22

Follow-up item: COc1ccccc1-n1nc(C2CCOC(C)(C)C2)cc1-c1ccc(Cl)cc1 (stereo unspecified) 8.70

Follow-up item: COc1ccccc1-n1nc([C@@H]2CCO[C@@H](C(C)C)C2)cc1-c1ccc(Cl)cc1 (relative stereo) 7.70

Follow-up item: COc1ccccc1-n1nc(C2CCOCC2)cc1-c1ccc(Cl)cc1 7.52

Follow-up item: COc1ccccc1-n1nc([C@@H]2CCO[C@H](C(C)C)C2)cc1-c1ccc(Cl)cc1 (relative stereo) 8.15

Follow-up item: CC1(C)CC(c2cc(-c3ccc(Cl)cc3)n(-c3ccncc3)n2)CC(C)(C)O1 8.15

Follow-up item: COc1ccccc1-n1nc(C2=CC(C)(C)OC(C)(C)C2)cc1-c1ccc(Cl)cc1 8.52

Follow-up item: COc1ccccc1-n1nc(C2CC(C)(C)OC(C)(C)C2)cc1-c1ccc(C#N)cc1 9.00

Follow-up item: COc1ccccc1-n1nc([C@H]2C[C@@H](C)O[C@@H](C)C2)cc1-c1ccc(Cl)cc1 8.52

* * *

Test: Plasma concentration in rat model of complete Freund's adjuvant-induced inflammatory painat 30 mg/kg, po after 2 hrs
Assay type: ADME, organism-based
experimental-endpoint: concentration at 2 h (nM)
Answer format: numeric, nM implied, no suffix.

Record request: concentration at 2 h value, item COc1ccccc1-n1nc(C2CC(C)(C)OC(C)(C)C2)cc1-c1ccc(Cl)cc1 700

* * *

Assay: Clearance in rat at 6 mg/kg, po or 1.2 mg/kg, iv
Type: ADME, organism-based
Settings: in vivo
experimental-endpoint: clearance (mL/min/kg)
Answer format: numeric, mL/min/kg implied, no suffix.

Record request: clearance value, item COc1ccccc1-n1nc(C2CC(C)(C)OC(C)(C)C2)cc1-c1csc(Cl)c1 15.9

* * *

Experiment: Half life in rat at 1.2 mg/kg, iv
Type: ADME, organism-based
Conditions: in vivo
experimental-endpoint: half-life (h)
Answer format: numeric, h implied, no suffix.

Record request: half-life value, item COc1ccccc1-n1nc(C2CC(C)(C)OC(C)(C)C2)cc1-c1csc(Cl)c1 10.2
